B1: HDV Ribozyme (parent)
chain: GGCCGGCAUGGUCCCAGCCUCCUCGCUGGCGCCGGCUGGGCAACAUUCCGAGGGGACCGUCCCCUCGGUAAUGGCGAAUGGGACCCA

# Variants of: B1
# Protocol Details: self-cleavage, relative activity (ratio to wild type); higher = more cleavage; co-transcriptional
Class membership depends on self-cleavage alone; the intervals are c1 = under 0.1, c2 = from 0.1 up to 0.7, c3 = 0.7 and over

- Mutant Code: "G29U C49A"
  Category Label: "c2"
- Mutant Code: "G2A U27G"
  Category Label: "c1"
- Mutant Code: "A43G G50C"
  Category Label: "c3"

Exam item: assign C19U C86U to the correct category.
c2

Exam item: assign C19A C75G to the correct category.
c1

Exam item: assign C41G U72G to the correct category.
c3

Exam item: assign C44A C86A to the correct category.
c3

Exam item: assign A42U U72A to the correct category.
c2

Exam item: assign G55A U60C to the correct category.
c3

Exam item: assign `C63U` to the correct category.
c3

Exam item: assign A51U C85U to the correct category.
c3

Exam item: assign G5A C24G to the correct category.
c1

Exam item: assign A56C U72A to the correct category.
c3

Exam item: assign C18A G82C to the correct category.
c2

Hey, just so you know, these numbers are from the RNAGym collection of RNA variant scans (doi:10.7554/elife.80360).
